Value source: patent US10543298B2

Catalogue of Solubility pH = 4.5 (volume of solvent required for dissolution per gram of solute) values
- assayDetails: Solubility in buffers at pH 1.0, 1.2, 4.5, 6.8 and 7.5
- Format: physicochemical
- cond: buffer pH 4.5, potassium biphthalate 0.2 M / HCl 0.2 M
quantity: Solubility pH = 4.5 (volume of solvent required for dissolution per gram of solute) (ml/g)

INSERT INTO assay_data (compound, unitlabel, quantitativereadout) VALUES
  ('C[C@H]1c2cccc(O)c2C(=O)C2=C(O)[C@]3(O)C(=O)C(C(N)=O)=C(O)[C@@H](N(C)C)[C@@H]3[C@@H](O)[C@@H]21 [Doxycycline Monohydrate, reference compound]', 'ml/g', 1000),
  ('C[C@H]1c2cccc(O)c2C(O)=C2C(=O)[C@]3(O)C(O)=C(C(N)=O)C(=O)[C@@H](N(C)C)[C@@H]3[C@@H](O)[C@@H]21.O=C(O)C(=O)O [Doxycycline Oxalate]', 'ml/g', 500),
  ('CC1c2cccc(O)c2C(O)=C2C(=O)C3(O)C(O)=C(C(N)=O)C(=O)C(N(C)C)C3C(O)C21.O=C(O)C=CC(=O)O (stereo not shown) [Doxycycline Maleate]', 'ml/g', 63),
  ('CCO.C[C@H]1c2cccc(O)c2C(=O)C2=C(O)[C@]3(O)C(=O)C(C(N)=O)=C(O)[C@@H](N(C)C)[C@@H]3[C@@H](O)[C@@H]21.C[C@H]1c2cccc(O)c2C(=O)C2=C(O)[C@]3(O)C(=O)C(C(N)=O)=C(O)[C@@H](N(C)C)[C@@H]3[C@@H](O)[C@@H]21.Cl.Cl.O [Doxycycline Hyclate, reference compound]', 'ml/g', 53);
